src = PubChem BioAssay (NCI)

assay-procedure: NCI Yeast Anticancer Drug Screen. Data for the bub3 strain (AID 167)
measurement-setup: S. cerevisiae bub3 mutant strain, at 5.0 µM (retest, dose inferred, filed as 0.5), active compounds read high
About 79,000 compounds went through this panel and 15% of them were active in at least one assay; those are over-represented in the sample as a whole.
Assign true to entries whose growth inhibition meets or exceeds 30%; assign false to the rest.

{"compound": "C/C(=N\\OCC(O)CNCCSCc1ccccc1)c1ccccc1Cl (configuration not stated)", "assigned-category": "false"}
{"compound": "COc1cc(C2C3=C(COC3=O)Oc3cc4c(cc32)OCO4)cc(OC)c1O (configuration not stated)", "assigned-category": "false"}
{"compound": "CC1=NN(C(=O)c2ccccc2O)C(=O)/C1=C/c1ccco1", "assigned-category": "true"}
{"compound": "O=C1C[C@H]2[C@H](c3ccc(Br)cc3)[C@H]3C(=O)c4ccccc4NC(=O)[C@@H]3[C@@]2(O)c2ccccc2N1", "assigned-category": "false"}
{"compound": "CC1=CC(C)(C)SC(SSSC2=NC(C)=CC(C)(C)S2)=N1", "assigned-category": "false"}
{"compound": "CNC(=O)OCc1c2ccncc2c(C)c2c1[nH]c1ccccc12", "assigned-category": "false"}
